system: Mycobacterium tuberculosis; assay: Antitubercular activity against Mycobacterium tuberculosis H37Rv after 7 days by MABA method; type: functional; settings: 168 h
Threshold check on MIC90: strictly below 0.5 µM is Y; on or above 0.5 µM is N.

compound	classification
CCc1nc2ccc(Cl)cn2c1C(=O)NCc1ccc(N2CC3CN(c4ccc(OC(F)(F)F)cc4)CC3C2)cc1 (stereo not drawn)	Y
CCc1nc2ccc(Cl)cn2c1C(=O)NCc1ccc(N2CCN(CC3CCCCC3)CC2)cc1	Y
CCc1nc2ccc(Cl)cn2c1C(=O)NCc1ccc(N2CC3CCC2CN3CC2CCCCC2)cc1 (stereo not drawn)	Y
CCc1nc2cc(Cl)ccn2c1C(=O)NCc1ccc(N2CC3CCC2CN3CC2CCCCC2)cc1 (stereo not drawn)	N
NNC(=O)c1ccncc1	Y
CCc1nc2ccc(Cl)cn2c1C(=O)NCc1ccc(N2CC3CC2CN3CC2CCCCC2)cc1 (stereo not drawn)	Y
CO[C@H]1/C=C/O[C@@]2(C)Oc3c(C)c(O)c4c(O)c(c(/C=N/N5CCN(C)CC5)c(O)c4c3C2=O)NC(=O)/C(C)=C\C=C\[C@H](C)[C@H](O)[C@@H](C)[C@@H](O)[C@@H](C)[C@H](OC(C)=O)[C@@H]1C	Y
CCc1nc2ccc(Cl)cn2c1C(=O)NCc1ccc(N2CCN(CCC3CCCCC3)CC2)cc1	Y

Data request: Dear reviewer, please state whether CCc1nc2ccc(Cl)cn2c1C(=O)NCc1ccc(N2CC3CN(CC4CCCCC4)CC3C2)cc1 (stereo not drawn) has MIC90 strictly beneath 0.5 µM.
Data returned: Y
